compounds and their reported HuR N/C Imax % Inh
molecular target: HuR (Homo sapiens); construct: expressed in transfected cells; host or cells: U251 glioma cells, doxycycline-inducible constructs; test: cell-based split firefly luciferase-HuR dimerization assay; settings: Concn 50 uM
Sequence (Q15717 whole entry): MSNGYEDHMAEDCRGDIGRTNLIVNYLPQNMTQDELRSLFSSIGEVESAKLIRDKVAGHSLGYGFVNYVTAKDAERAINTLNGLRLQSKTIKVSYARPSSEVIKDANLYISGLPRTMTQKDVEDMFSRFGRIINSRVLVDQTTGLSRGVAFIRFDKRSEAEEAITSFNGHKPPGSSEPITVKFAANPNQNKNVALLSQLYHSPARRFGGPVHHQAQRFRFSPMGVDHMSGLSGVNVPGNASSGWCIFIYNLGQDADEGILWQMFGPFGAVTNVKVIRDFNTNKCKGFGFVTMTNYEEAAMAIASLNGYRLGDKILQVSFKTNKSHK
Report the figure in % without appending any unit label.

Example compounds with recorded HuR N/C Imax % Inh:
c1ccc(CNc2ccc3ncc(-c4ccc5[nH]ncc5c4)n3n2)cc1 [Compound 47] :: 93
FC1(F)CCC(Nc2ccc3ncc(-c4ccc5[nH]ncc5c4)n3n2)CC1 [Compound 46] :: 91
O=C(c1ccc2nsnc2c1)N1CCN(C(=O)C2CC2c2cccs2)CC1 (stereo not drawn) [SRI-43650] :: 0

// HuR N/C Imax % Inh lookup, key: O=C(CCn1ccc(=O)[nH]c1=O)N1CCN(C(=O)C2CC2c2ccc3c(c2)OCO3)CC1 (stereo not drawn) [SRI-43654]
0

Quick check: HuR N/C Imax % Inh of COc1ncccc1-c1cnn2ccc(N3CCN(C(=O)OC(C)C)CC3)nc12 [SRI-43414] ?
45

Endpoint output: HuR N/C Imax % Inh of c1cc2cn[nH]c2cc1-c1cnc2ccc(OC3CCOCC3)nn12 [Compound 58] . Value?
82

Item under review: Clc1ncc2nnn(-c3ccc4cn[nH]c4c3)c2n1 [SRI-42123] . Reported HuR N/C Imax % Inh?
0
